Read-out: TIMP metallopeptidase inhibitor 1 (TIMP1), TIMP1 (gene 7076)
EXPERIMENTAL_PROTOCOL: BSK_MyoF_TIMP1: BioMAP Diversity Plus: MyoF Assay for TIMP metallopeptidase inhibitor 1 (TIMP1) Biomarker Activity (AID 2284269)
DETAILS: primary human lung fibroblasts
Activity calls are given as the source filed them. The calls were made as follows: active = hit-call score of the fitted dose curve at least 0.9, where 1 is the maximum; inactive = score below 0.9.
Labels: active, inactive

COMPOUND: C=C(C)C(=O)OCC(F)(F)C(F)(F)C(F)(F)C(F)F
ASSIGNED_LABEL: inactive
--
COMPOUND: C[C@]12CC[C@H]3C(=CCc4cc(O)ccc43)[C@@H]1CCC2=O
ASSIGNED_LABEL: inactive
--
COMPOUND: NC(=O)C(F)(F)C(F)(F)C(F)(F)C(F)(F)C(N)=O
ASSIGNED_LABEL: inactive
--
COMPOUND: O=C(O)C(F)(F)C(F)(F)C(F)(F)OC(F)(C(F)(F)F)C(F)(F)F
ASSIGNED_LABEL: inactive
--
COMPOUND: NC(=O)C(F)(F)C(F)(F)C(F)(F)C(F)(F)C(F)(F)C(F)(F)C(F)(F)F
ASSIGNED_LABEL: inactive
--
COMPOUND: OCC(F)(F)C(F)(F)C(F)(F)C(F)(F)C(F)(F)C(F)(F)CO
ASSIGNED_LABEL: inactive
--
COMPOUND: O=C(O)C(F)(F)C(F)(F)C(F)(F)C(=O)O
ASSIGNED_LABEL: inactive
--
COMPOUND: CCN(CC)c1ccc(N=Nc2ccccc2)cc1
ASSIGNED_LABEL: inactive
--
COMPOUND: O=S(=O)(O)CCC(F)(F)C(F)(F)C(F)(F)C(F)(F)F
ASSIGNED_LABEL: inactive
--
COMPOUND: Nc1cc([N+](=O)[O-])cc(Cl)c1O
ASSIGNED_LABEL: inactive
--
COMPOUND: CCOC(C=C(C)CCC=C(C)C)OCC
ASSIGNED_LABEL: active
--
COMPOUND: CCN(CC)c1ccc(C=O)c(O)c1
ASSIGNED_LABEL: inactive
--
COMPOUND: O=C=NCc1cccc(CN=C=O)c1
ASSIGNED_LABEL: inactive
--
COMPOUND: O=C=Nc1cccc2c(N=C=O)cccc12
ASSIGNED_LABEL: inactive
--
COMPOUND: FC(F)(F)C(F)(F)C(F)(F)CC1CO1 (centres undefined)
ASSIGNED_LABEL: inactive
--
COMPOUND: O=S(=O)(O)CCC(F)(F)C(F)(F)C(F)(F)C(F)(F)C(F)(F)C(F)(F)C(F)(F)C(F)(F)F
ASSIGNED_LABEL: inactive
--
COMPOUND: Brc1nc2ccccc2s1
ASSIGNED_LABEL: inactive
--
COMPOUND: CC(C)CCCC(C)CCO (centres undefined)
ASSIGNED_LABEL: inactive
--
COMPOUND: O=C(c1ccccc1)c1ccc(O)cc1O
ASSIGNED_LABEL: inactive
--
COMPOUND: NCC(F)(F)C(F)(F)C(F)(F)C(F)(F)C(F)(F)C(F)(F)C(F)(F)C(F)(F)F
ASSIGNED_LABEL: inactive
--
COMPOUND: O=C1c2c(O)ccc(Nc3ccc(CCO)cc3)c2C(=O)c2c([N+](=O)[O-])ccc(O)c21
ASSIGNED_LABEL: inactive
--
COMPOUND: C=CC(=O)OCCC(F)(F)C(F)(F)C(F)(F)C(F)(F)F
ASSIGNED_LABEL: inactive
--
COMPOUND: CCN(CC)c1ccc2c(c1)Oc1cc(N(CC)CC)ccc1C21OC(=O)c2ccccc21
ASSIGNED_LABEL: inactive
--
COMPOUND: Cc1cc(C)c(O)c(C(C)(C)C)c1
ASSIGNED_LABEL: active
